compounds and their reported melting point

Bench note: what melting point did O=C(O)CCNC(=O)NCCCN1CCN(c2ccccc2)CC1 show?
169 to 171 °C

Look at this compound and give its reported melting point. O=C(O)C(c1ccccc1)N1C(=O)c2ccccc2C1=O (centres undefined)
175 to 177 °C

Item under review: CC(c1ccc(F)c(F)c1F)n1ncc(-c2ccc(S(N)(=O)=O)cc2)c(-c2ccc(F)cc2)c1=O (centres undefined) . Reported melting point?
192 to 194 °C

Need melting point, item COC(=O)c1ccc(C(F)(F)F)nc1S(=O)(=O)NC(C)(C)C
76 to 83 °C

What value of melting point has been recorded for this entry: CCCCC(=N)NC(=O)Nc1ccc(N)cc1
102 to 103 °C

---

MEASUREMENT TYPE: melting point

CCCn1c(=O)c2[nH]c(/C=C/c3ccc(OC)cc3)nc2n(CCC)c1=O :: 281 to 284 °C
CC(C)(C)OC(=O)NC1CN(c2c(F)cc3c(=O)c(C(=O)O)cn(C4CC4)c3c2Cl)CC12CC2 (stereo not given) :: 205 to 207 °C
NS(=O)(=O)c1ccc(-n2nc(C(F)(F)F)cc2-c2nc3ccc(Cl)cc3s2)cc1 :: 254 to 255 °C
CC1(C)NC(=O)N(c2ccc(F)cc2)C1=O :: 166 to 167 °C
O=Cc1cc(Cl)ccc1Oc1ccc(Cl)cc1[N+](=O)[O-] :: 128 to 130 °C
Cc1cccc(Cl)c1NS(=O)(=O)c1nc2sccn2n1 :: 91 to 93 °C
Clc1ccsc1-c1nc(COc2ccc(CCCn3ccnc3)cc2)co1 :: 69 to 70 °C
O=Cc1cc2c(cc1O)CCO2 :: 102 to 104 °C

// melting point lookup, key: CN(C)N(CCC(N)=O)C(N)=O
173 to 174 °C

Tell me the measured melting point of COC(=O)CCC(=O)c1cc(NC(C)=O)ccc1OCC(O)CNC(C)(C)C (stereo not given) , please.
127 to 128 °C

---

This listing pairs molecules with measured melting point.

Sample answers from the record:
COc1c(C)cc(C2=C(c3ccc(S(C)(=O)=O)cc3)OC(C)(C)C2=O)cc1C :: 130 to 131 °C
Cc1sc(-c2ccc(OC(F)(F)F)cc2)cc1-c1nc(-c2c(F)cccc2Cl)nn1C :: 153 to 155 °C
O=C1C(=O)N(c2ccc(F)cc2)c2ccc(F)cc21 :: 180 to 190 °C
COc1ccc(C(=O)NC(N)=NC(=O)Cn2c(Cl)ccc2Cl)cc1 :: 215 to 217 °C
CC(C)n1nc(-c2sc(NC(=O)c3ccccc3Cl)nc2-c2ccccc2)ccc1=O :: 220 to 221 °C
O=C(O)C(=O)c1ccc2c(c1)Cc1ccccc1-2 :: 135 to 137 °C
Cn1cc(C(=O)NCc2ccc(C#N)cc2)c(=O)c2cc(C#CCO)ccc21 :: 230 to 232 °C
CCOc1ccc(C(=O)NCc2ccc3c(c2)C(=O)N(C2(C)CCC(=O)NC2=O)C3=O)cn1 (stereo not given) :: 174 to 176 °C
CC(C)(C)N1CCc2c(C(=O)O)nc3c(C#N)cnn3c21 :: 230 to 232 °C
COC1CC2(C)C(CCC3C4CC=C(C(C)=O)C4(C)CC(=O)C32)CC1O (stereo not given) :: 159 to 163 °C

So what does the record say about melting point for COc1ccc(C(=O)n2c3c(c4cc(F)ccc42)CC(C(=O)O)CC3)cc1 (stereo not given) ?
197 to 198 °C

melting point for CC(=O)ON1C(C)(C)CC(OC(=O)CCCCCCCCC(=O)OC2CC(C)(C)N(OC(C)=O)C(C)(C)C2)CC1(C)C ?
81 to 94 °C

Bench note: what melting point did CCN(CC)CCNC(=O)C1N=C(c2ccccc2)c2cc(Cl)ccc2NC1=O (stereo not given) show?
220 °C

# input molecule: c1cn(-c2cc(-n3ccnc3)ncn2)cn1 ; wanted: its melting point
243 to 244 °C

What melting point value was documented for this molecule, CC(C)(C)c1ccc(C(NC(=O)c2c(F)cccc2F)N2CCOCC2)cc1 (stereo not given) ?
199 to 200 °C

Give the measured melting point of CCONC(O)(CC)C1C(=O)C=C(CC)OC1=O (stereo not given) .
63 to 64 °C

melting point for Cc1nc(C(=O)N(C)C)c2n1-c1ccc(Cl)cc1C(c1ccccc1)=NC2 ?
173 to 175 °C

So what does the record say about melting point for CC(C)C[C@H](NC(=O)OC(c1ccccc1)c1ccccc1)C(=O)Oc1c(Cl)c(Cl)c(Cl)c(Cl)c1Cl ?
84 to 86 °C

Requested field: melting point. Item: COC(=O)[C@H]1CC[C@H](c2[nH]nc3c2C(=O)c2c(NC(=O)NN4CCOCC4)cccc2-3)CC1
259 to 261 °C

Requested field: melting point. Item: COc1ccc2nc(CCCCCCC(=O)O)ccc2c1
84 to 87 °C
